molecular target: human DAT (Homo sapiens); construct: expressed in transfected cells; host or cells: HEK-293 cells (Invitrogen, Zug, Switzerland); assay: Inhibition of DA uptake; type: cell-based
pIC50: −log10 of the molar value.

structureAsSmiles: CN[C@@H](C)Cc1ccccc1
pIC50: 5.98

###

target: human DAT (Homo sapiens); construct: expressed in transfected cells; host or cells: HEK-293 cells (Invitrogen, Zug, Switzerland); assay: Inhibition of DA uptake; type: cell-based; settings: HEK-293 cells stably transfected with the human DAT; means of 3–4 independent experiments and 95% CI; read-out: DA uptake IC50 (95% CI)
pIC50: −log10 of the molar value.

molecule: CCCC(C(=O)c1ccc2c(c1)OCO2)N1CCCC1 (stereo not shown)
measurementTarget: human DAT (Homo sapiens)
pIC50: 7.51

###

target: human DAT (Homo sapiens, UniProt Q01959); construct: expressed in transfected cells; host or cells: HEK-293 cells (Invitrogen, Zug, Switzerland); experiment: Inhibition of methamphetamine-induced DA release; format: cell-based; conditions: HEK-293 cells expressing human DAT preloaded with 3H-DA; release induced with 10 μM methamphetamine, 15 min; means of 3–4 independent experiments and 95% CI
Sequence (Q01959 whole entry): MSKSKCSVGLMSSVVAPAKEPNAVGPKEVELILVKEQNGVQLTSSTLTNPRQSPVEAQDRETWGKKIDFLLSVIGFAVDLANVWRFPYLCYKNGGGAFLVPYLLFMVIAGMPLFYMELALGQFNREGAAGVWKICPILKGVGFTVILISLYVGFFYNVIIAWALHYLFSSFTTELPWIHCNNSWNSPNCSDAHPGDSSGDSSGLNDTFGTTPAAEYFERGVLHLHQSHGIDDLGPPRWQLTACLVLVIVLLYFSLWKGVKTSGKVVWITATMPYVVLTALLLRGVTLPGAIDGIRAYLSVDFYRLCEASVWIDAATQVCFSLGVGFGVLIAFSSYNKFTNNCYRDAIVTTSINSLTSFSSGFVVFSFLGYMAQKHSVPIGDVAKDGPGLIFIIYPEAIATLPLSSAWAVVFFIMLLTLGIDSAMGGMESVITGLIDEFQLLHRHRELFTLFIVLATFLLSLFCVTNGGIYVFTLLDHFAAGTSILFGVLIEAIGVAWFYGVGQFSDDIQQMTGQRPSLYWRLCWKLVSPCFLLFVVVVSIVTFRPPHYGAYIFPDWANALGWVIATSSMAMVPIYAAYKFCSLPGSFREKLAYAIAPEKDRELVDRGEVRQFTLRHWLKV
pIC50: −log10 of the molar value.
parameter: pIC50

compound: CCCC(C(=O)c1ccc2c(c1)OCO2)N1CCCC1 (stereo not shown)
result: 6.55
